# optical density listing for each entry below
- Experimental target: T1, Goat anti-Human Kappa
- T1 construct: Positive control of the ELISA; also called biotinylated goat anti-human kappa light chain
- Experiment: ELISA, positive control; note: test concentration or dose not given here
- Experimental: The binding of ACVR2A-specific monoclonal antibodies to human ACVR2A, mouse ACVR2A, biotinylated goat anti-human kappa light chain (positive control) and human Fc (negative control) were determined by ELISA.
Output spec: scalar in OD, unitless text.

Look over these answered cases.
Binder	Parameter measured	Experimental value
369_G04 (antibody, V domains shown) VH: EVQLLESGGGLVQPGGSLRLSCAASGFTFDSYSMNWVRQAPGKGLEWVSGINYNGGYTSYADSVKGRFTISRDNSKNTLYLQMNSLRAEDTAVYYCARSANWHDTALDYWGQGTLVTVSS VL: DIQMTQSPSSLSASVGDRVTITCRASQSILTYVNWYQQKPGKAPKLLIYATTSRHSGVPSRFSGSGSGTDFTLTISSLQPEDFATYYCQQSYETPLTFGGGTKVEIK	optical density	3.32
371_A03 (antibody, V domains shown) VH: EVQLLESGGGLVQPGGSLRLSCAASGFTFSDYGMNWVRQAPGKGLEWVANINYNGGYTGYADSVKGRFTISRDNSKNTLYLQMNSLRAEDTAVYYCARSANWHDTALDYWGQGTLVTVSS VL: DIQMTQSPSSLSASVGDRVTITCRASQSILSYLNWYQQKPGKAPKLVIYATTSRASGVPSRFSGSGSGTDFTLTISSLQPEDFATYYCQQSYESPLTFGGGTKVEIK	optical density	3.56

// next entry
Incoming: Form field: reported optical density of 370_H09 (antibody, V domains shown) VH: EVQLLESGGGLVQPGGSLRLSCAASGFTFSSYGMNWVRQAPGKGLEWVANINYNGGYTSYADSVKGRFTISRDNSKNTLYLQMNSLRAEDTAVYYCARSANWHDTALDYWGQGTLVTVSS VL: DIQMTQSPSSLSASVGDRVTITCRASQSIVSYVNWYQQKPGKAPKLLIYAATSRASGVPSRFSGSGSGTDFTLTISSLQPEDFATYYCQQSYDNPLTFGGGTKVEIK
Outgoing: 3.54
